Parameter: IC50. Scope: all listed entries.
Target: Glucocorticoid receptor (Homo sapiens)
Sequence (P04150 whole entry): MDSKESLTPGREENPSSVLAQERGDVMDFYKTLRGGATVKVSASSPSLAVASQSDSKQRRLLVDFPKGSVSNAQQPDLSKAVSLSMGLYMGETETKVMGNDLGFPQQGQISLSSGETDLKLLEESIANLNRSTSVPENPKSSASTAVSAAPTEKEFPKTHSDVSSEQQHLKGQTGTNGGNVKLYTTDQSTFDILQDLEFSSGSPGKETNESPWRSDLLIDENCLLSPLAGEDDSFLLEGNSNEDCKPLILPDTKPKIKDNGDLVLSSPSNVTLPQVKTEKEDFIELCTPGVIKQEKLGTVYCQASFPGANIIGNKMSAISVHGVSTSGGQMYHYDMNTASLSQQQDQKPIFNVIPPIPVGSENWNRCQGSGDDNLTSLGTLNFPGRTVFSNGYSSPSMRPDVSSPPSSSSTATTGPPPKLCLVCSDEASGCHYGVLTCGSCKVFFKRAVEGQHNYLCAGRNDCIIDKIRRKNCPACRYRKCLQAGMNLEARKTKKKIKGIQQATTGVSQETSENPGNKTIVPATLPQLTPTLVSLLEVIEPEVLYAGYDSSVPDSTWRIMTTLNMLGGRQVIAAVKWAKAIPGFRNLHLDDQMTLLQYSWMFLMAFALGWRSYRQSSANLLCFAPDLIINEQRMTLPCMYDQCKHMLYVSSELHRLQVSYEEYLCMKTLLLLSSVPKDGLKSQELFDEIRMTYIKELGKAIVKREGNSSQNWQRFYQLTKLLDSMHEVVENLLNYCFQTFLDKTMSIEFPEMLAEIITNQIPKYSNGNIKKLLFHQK
Test: Inhibition of human glucocorticoid receptor
Numeric answer only, unit nM assumed.

Sample answers from the record:
# molSmiles, valueType, readoutUnits, reported
measured = [
    ("C[C@@H]1C[C@H]2[C@@H]3CCC4=CC(=O)C=C[C@]4(C)[C@@]3(Cl)[C@@H](O)C[C@]2(C)[C@@]1(O)C(=O)CSc1nc2ccccc2s1", "IC50", "nM", 17),
    ("C[C@@H]1C[C@H]2[C@@H]3C[C@H](F)C4=CC(=O)C=C[C@]4(C)[C@@]3(F)[C@@H](O)C[C@]2(C)[C@@]1(O)C(=O)CSc1nc2ccccc2s1", "IC50", "nM", 13),
    ("C[C@]12CCC(=O)C=C1CC[C@@H]1[C@@H]2[C@@H](O)C[C@@]2(C)[C@H]1CC[C@]2(O)C(=O)CSc1nc2ccccc2s1", "IC50", "nM", 4.8),
]

**Query** Look at this compound and give its reported IC50. C[C@H]1C[C@@H]2[C@H]([C@@H](O)C[C@@]3(C)[C@H]2CC[C@]3(O)C(=O)CSc2nc3ccccc3s2)[C@@]2(C)C=CC(=O)C=C12
**Result** 18

---

Target: Glucocorticoid receptor (Rattus norvegicus) (UniProt P06536)
Sequence (whole entry): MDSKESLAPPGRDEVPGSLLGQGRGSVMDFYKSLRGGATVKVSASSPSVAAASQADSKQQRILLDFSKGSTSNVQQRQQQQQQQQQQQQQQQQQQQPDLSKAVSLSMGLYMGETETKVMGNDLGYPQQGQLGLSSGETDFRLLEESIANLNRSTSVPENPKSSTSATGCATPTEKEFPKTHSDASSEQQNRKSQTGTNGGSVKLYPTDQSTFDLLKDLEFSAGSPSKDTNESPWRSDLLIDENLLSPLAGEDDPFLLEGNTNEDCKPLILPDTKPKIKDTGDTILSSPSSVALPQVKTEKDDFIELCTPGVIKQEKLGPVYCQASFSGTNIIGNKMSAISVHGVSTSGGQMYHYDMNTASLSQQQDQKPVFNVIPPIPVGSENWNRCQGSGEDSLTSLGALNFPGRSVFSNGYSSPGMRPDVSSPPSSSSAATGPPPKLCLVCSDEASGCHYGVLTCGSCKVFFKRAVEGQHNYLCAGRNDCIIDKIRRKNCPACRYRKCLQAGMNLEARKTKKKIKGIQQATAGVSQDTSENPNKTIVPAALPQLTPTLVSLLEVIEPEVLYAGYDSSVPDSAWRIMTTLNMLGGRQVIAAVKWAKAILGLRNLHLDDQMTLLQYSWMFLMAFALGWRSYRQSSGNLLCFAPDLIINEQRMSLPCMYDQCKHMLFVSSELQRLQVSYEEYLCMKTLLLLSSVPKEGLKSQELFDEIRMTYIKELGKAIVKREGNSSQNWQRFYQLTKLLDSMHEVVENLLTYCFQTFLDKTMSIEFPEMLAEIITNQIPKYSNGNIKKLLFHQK
Test: Transactivation activity at glucocorticoid receptor in rat H4II-E cells assessed as induction of tyrosine amino transferase at 1 uM relative to control
Type: cell-based
valueType: Emax (%)
Numeric answer only, unit % assumed.

Sample answers from the record:
# compound, testedOn, valueType, reported
data = [
    ("C[C@]12CCC(=O)C=C1CC[C@@H]1[C@@H]2[C@@H](O)C[C@@]2(C)[C@H]1CC[C@]2(OC(=O)c1ccco1)C(=O)CSc1ncccn1", "Glucocorticoid receptor (Rattus norvegicus) (UniProt P06536)", "Emax", 7),
    ("Cn1c(SCC(=O)[C@@]2(OC(=O)c3ccco3)CC[C@H]3[C@@H]4CCC5=CC(=O)CC[C@]5(C)[C@H]4[C@@H](O)C[C@@]32C)nc2ccccc21", "Glucocorticoid receptor (Rattus norvegicus) (UniProt P06536)", "Emax", 17),
    ("C[C@]12C=CC(=O)C=C1CC[C@@H]1[C@@H]2[C@@H](O)C[C@@]2(C)[C@H]1CC[C@]2(OC(=O)c1ccco1)C(=O)CSc1nc2ccccc2s1", "Glucocorticoid receptor (Rattus norvegicus) (UniProt P06536)", "Emax", 62),
]

**Query** Look at this compound and give its reported Emax. C[C@]12CCC(=O)C=C1CC[C@@H]1[C@@H]2[C@@H](O)C[C@@]2(C)[C@H]1CC[C@]2(OC(=O)c1ccco1)C(=O)CSc1nc2ncccc2s1
**Result** 2

**Query** Look at this compound and give its reported Emax. C[C@]12CCC(=O)C=C1CC[C@@H]1[C@@H]2[C@@H](O)C[C@@]2(C)[C@H]1CC[C@]2(OC(=O)c1ccco1)C(=O)CSc1nc2ccccc2o1
**Result** 9

**Query** Look at this compound and give its reported Emax. CCC(=O)O[C@]1(C(=O)SCF)[C@H](C)C[C@H]2[C@@H]3C[C@H](F)C4=CC(=O)C=C[C@]4(C)[C@@]3(F)[C@@H](O)C[C@@]21C [FLUTICASONE PROPIONATE]
**Result** 110

---

Parameter: selectivity ratio. Scope: all listed entries.
experiment: Therapeutic index, ratio of ED20 for thymolysis to ED70 for forced vital capacity in ovalbumin-challenged Brown-Norway rat; type: organism-based; settings: in vivo, read-out: TI
// return just the number, without any unit appended

# molecule, selectivity ratio
data = [
    ("CCCC1O[C@@H]2C[C@H]3[C@@H]4CCC5=CC(=O)C=C[C@]5(C)[C@H]4[C@@H](O)C[C@]3(C)[C@]2(C(=O)CO)O1 (stereo partly drawn) [BUDESONIDE]", 1),
]

We now examine a further molecule.
**Query** Look at this molecule and give its reported selectivity ratio. CCC(=O)OCC(=O)[C@@]1(OC(=O)CC)[C@@H](C)C[C@H]2[C@@H]3CCC4=CC(=O)C=C[C@]4(C)[C@@]3(Cl)[C@@H](O)C[C@@]21C [BECLOMETHASONE DIPROPIONATE]
**Result** 1

---

Target: Glucocorticoid receptor (Homo sapiens) (UniProt P04150)
Sequence (whole entry): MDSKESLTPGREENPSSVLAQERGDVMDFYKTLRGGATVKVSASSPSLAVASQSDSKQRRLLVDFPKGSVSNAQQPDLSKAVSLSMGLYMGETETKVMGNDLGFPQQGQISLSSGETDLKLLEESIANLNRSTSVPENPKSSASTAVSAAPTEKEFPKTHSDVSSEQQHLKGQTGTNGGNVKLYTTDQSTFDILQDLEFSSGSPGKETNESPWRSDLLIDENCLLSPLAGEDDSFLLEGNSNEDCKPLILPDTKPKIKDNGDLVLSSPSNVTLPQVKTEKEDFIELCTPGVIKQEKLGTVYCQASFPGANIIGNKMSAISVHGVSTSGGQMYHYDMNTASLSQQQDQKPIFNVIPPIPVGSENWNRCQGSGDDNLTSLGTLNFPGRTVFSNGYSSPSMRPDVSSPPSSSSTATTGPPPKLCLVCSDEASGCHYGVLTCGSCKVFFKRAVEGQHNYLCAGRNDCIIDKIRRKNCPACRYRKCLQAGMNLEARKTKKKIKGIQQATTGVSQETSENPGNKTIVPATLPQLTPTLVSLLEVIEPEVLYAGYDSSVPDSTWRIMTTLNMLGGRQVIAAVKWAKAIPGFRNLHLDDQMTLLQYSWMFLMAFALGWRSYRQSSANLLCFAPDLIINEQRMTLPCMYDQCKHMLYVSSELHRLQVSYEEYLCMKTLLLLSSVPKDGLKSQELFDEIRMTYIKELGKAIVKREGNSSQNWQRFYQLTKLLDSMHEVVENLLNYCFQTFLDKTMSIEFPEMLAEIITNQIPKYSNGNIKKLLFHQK
Assay: Transactivation activity at glucocorticoid receptor in human HepG2 cells assessed as induction of tyrosine amino transferase at 1 uM relative to control
Assay type: cell-based
Decide using Emax alone. Strictly below 40%: met. Equal to or above 40%: not met.

Please review the following examples before continuing.
# compound, assignedLabel
records = [
    ("C[C@]12CCC(=O)C=C1CC[C@@H]1[C@@H]2[C@@H](O)C[C@@]2(C)[C@H]1CC[C@]2(OC(=O)c1ccco1)C(=O)CSc1ncccn1", "met"),
    ("C[C@]12CCC(=O)C=C1CC[C@@H]1[C@@H]2[C@@H](O)C[C@@]2(C)[C@H]1CC[C@]2(OC(=O)c1ccco1)C(=O)CSc1nccc2ccccc12", "met"),
    ("C[C@]12C=CC(=O)C=C1CC[C@@H]1[C@@H]2[C@@H](O)C[C@@]2(C)[C@H]1CC[C@]2(OC(=O)c1ccco1)C(=O)CSc1nc2ccccc2s1", "not met"),
    ("Cc1nc(SCC(=O)[C@@]2(OC(=O)c3ccco3)CC[C@H]3[C@@H]4CCC5=CC(=O)CC[C@]5(C)[C@H]4[C@@H](O)C[C@@]32C)sc1C", "not met"),
]

**Query** Is 40% strictly greater than the compound's reported Emax? compound: C[C@]12CCC(=O)C=C1CC[C@@H]1[C@@H]2[C@@H](O)C[C@@]2(C)[C@H]1CC[C@]2(OC(=O)c1ccco1)C(=O)CSc1nc2ccccc2o1
**Result** not met

**Query** Is 40% strictly greater than the compound's reported Emax? compound: C[C@]12C=CC(=O)C=C1CC[C@@H]1[C@@H]2[C@@H](O)C[C@@]2(C)[C@H]1CC[C@]2(OC(=O)c1ccco1)C(=O)CSc1nccc2ccccc12
**Result** met

The values you see were collected from ChEMBL document CHEMBL1914389.
